# tested-system: Cellular tumor antigen p53 (Homo sapiens)
# protocol-summary: TOX21_p53_BLA_p2_ratio: Tox21 HCT-116 p53 Agonism Beta-lactamase Assay, Ratio, Phase 2 (AID 2283592)
Records with an inconclusive call do not appear. Activity calls are given as the source filed them. How the source made its calls: active means hit-call score of the fitted dose curve at least 0.9, where 1 is the maximum; inconclusive means response in the unintended direction; inactive means score below 0.9.
Labels: active, inactive

molecule="OCC1CC2CC1C1CCC(CO)C21 (configuration not stated)" category_label=inactive
molecule=COc1ccc(/C=C/C(=O)Nc2ccccc2C(=O)O)cc1OC category_label=inactive
molecule=CC[C@H]1OC(=O)[C@H](C)C(=O)[C@H](C)[C@@H](O[C@@H]2O[C@H](C)C[C@H](N(C)C)[C@H]2O)[C@](C)(OC)C[C@@H](C)C(=O)[C@H](C)[C@H]2N(CCCCn3cnc(-c4cccnc4)c3)C(=O)O[C@]12C category_label=inactive
molecule="CC(NCCC(c1ccccc1)c1ccccc1)c1ccccc1 (configuration not stated)" category_label=active
molecule=CC(C)(C)OC(=O)c1ccccc1C(=O)O category_label=inactive
molecule=CNC(=O)Nc1ccc(Cl)c(Cl)c1 category_label=inactive
molecule=CC(=O)CCc1ccccc1 category_label=inactive
molecule="CN(C)[C@@H]1C(=O)C(C(=O)NCN2CCCC2)=C(O)[C@@]2(O)C(=O)C3=C(O)c4c(O)cccc4[C@@](C)(O)C3C[C@@H]12 (some centres not stated)" category_label=inactive
molecule=CC(=O)c1sc(C)nc1C category_label=inactive
molecule=Cc1cc(O)c(C(C)C)cc1Cl category_label=inactive
molecule=COc1cc(C)c(/C=C/C(C)=C/C=C/C(C)=C/C(=O)O)c(C)c1C category_label=active
molecule=CC(=O)N[C@@H](CCC(N)=O)C(=O)O category_label=inactive

###

# protocol-summary: TOX21_p53_BLA_p2_viability: Viability Assessment in the Tox21 HCT-116 p53 Agonism Beta-lactamase Assay, Phase 2 (AID 2283591);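 further: compound exposure lasted 16 h at 37 °C; actives lower the ATP signal meaning cytotoxicity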
Results filed as inconclusive are left out. Activity calls are given as the source filed them. How the source made its calls: active means hit-call score of the fitted dose curve at least 0.9, where 1 is the maximum; inconclusive means response in the unintended direction; inactive means score below 0.9.
Classes used: Y for active, N for inactive

compound=CCOC(=O)[C@H](CCc1ccccc1)N[C@@H](C)C(=O)N1C(=O)N(C)C[C@H]1C(=O)O category_label=N
compound=CN=C(N)NCCC[C@H](N)C(=O)O category_label=N
compound=OCC(CO)N[C@H]1C[C@](O)(CO)[C@@H](O)[C@H](O)[C@H]1O category_label=N
compound="CC12CCC(C[N+](C)(CCC[N+](C)(C)C)C1)C2(C)C (centres undefined)" category_label=N
compound=O=S(c1cc(Cl)cc(Cl)c1O)c1cc(Cl)cc(Cl)c1O category_label=N
compound=C[Si](C)(C)O[Si](C)(C)O[Si](C)(C)C category_label=N
compound=CC(=O)Nc1ccccc1C category_label=N
compound=COc1cc2[nH]c(=O)[nH]c(=O)c2cc1OC category_label=N
compound="COc1ccc(OC)c(C(O)CNC(=O)CN)c1 (centres undefined)" category_label=N
compound=O=C1c2c(O)ccc([N+](=O)[O-])c2C(=O)c2c([N+](=O)[O-])ccc(O)c21 category_label=Y
compound=CCCC(=O)O[C@]1(C(=O)CCl)[C@@H](C)C[C@H]2[C@@H]3CCC4=CC(=O)C=C[C@]4(C)[C@@]3(F)C(=O)C[C@@]21C category_label=N
compound=CCCCCCCCCCCCCC category_label=N
compound="c1cc(OCC2CO2)cc(OCC2CO2)c1 (centres undefined)" category_label=N
compound=O=C(O)C=CC(=O)Nc1ccc(S(=O)(=O)Nc2nccs2)cc1 category_label=N
compound=SC1CCCCC1 category_label=N
compound=O=C(O)CNC(=O)c1ccccc1I category_label=N
compound="COc1cc2nc(N3CCN(C(=O)C4COc5ccccc5O4)CC3)nc(N)c2cc1OC (centres undefined)" category_label=N
compound=CCOc1ccc(O)cc1 category_label=N
compound=C[N+](C)(C)CC[N+]1(C)Cc2c(Cl)c(Cl)c(Cl)c(Cl)c2C1 category_label=N
compound=C=CCn1c(=O)n(CC=C)c(=O)n(CC=C)c1=O category_label=N
compound=CCCCCCCC[P+](CCCCCCCC)(CCCCCCCC)CCCCCCCC category_label=Y
compound="CCCOC(=O)C(C)O (centres undefined)" category_label=N
compound=CCOC(=O)c1ncn2c1CN(C)C(=O)c1cc(F)ccc1-2 category_label=N
compound=OC[C@@H](O)[C@@H](O[C@@H]1O[C@H](CO)[C@H](O)[C@H](O)[C@H]1O)[C@H](O)[C@@H](O)CO category_label=N

###

# protocol-summary: UKN5_HCS_SBAD2_neurite_outgrowth: University of Konstanz (UKN) Leist Lab Neurite Outgrowth Assay in human iPSC-derived immature Dorsal Root Ganglia Neurons (UKN5) (AID 2284070)
# condition-details: actives raise or lower the signal
Activity calls are given as the source filed them. How the source made its calls: active means hit-call score of the fitted dose curve at least 0.9, where 1 is the maximum; inactive means score below 0.9.
Possible outcomes: Yes = active, No = inactive

molecule="CC(C)(C)NCC(O)c1cc(O)cc(O)c1 (stereo not given)" category_label=No
molecule=CC1(C)S[C@@H]2[C@H](NC(=O)[C@H](N)c3ccccc3)C(=O)N2[C@H]1C(=O)O category_label=No
molecule="CNCCC(Oc1ccc(C(F)(F)F)cc1)c1ccccc1 (stereo not given)" category_label=Yes
molecule=Oc1cccc2ccccc12 category_label=No
molecule=C[C@@H]1C[C@H]2[C@@H]3CCC4=CC(=O)C=C[C@]4(C)[C@@]3(F)[C@@H](O)C[C@]2(C)[C@@]1(O)C(=O)CO category_label=No

###

# protocol-summary: CCTE_Shafer_MEA_dev_bursting_electrodes_number: CCTE's Neural Network Formation Assay for Number of Bursting Electrodes, Shafer Lab (AID 2284043)
Inconclusive results are not listed. The source made the active and inactive calls. Rule for the calls: active = hit-call score of the fitted dose curve at least 0.9, where 1 is the maximum; inconclusive = response in the unintended direction; inactive = score below 0.9.
Outcome codes: label 1 for active, label 0 for inactive

sample_smiles=[Cl-].[Cl-].[NH2-].[NH2-].[Pt+4] category_label="label 1"
sample_smiles=COc1ccc2cc3[n+](cc2c1OC)CCc1cc2c(cc1-3)OCO2 category_label="label 1"
sample_smiles=c1cc2ccc3ccc4ccc5cccc6c(c1)c2c3c4c56 category_label="label 0"
sample_smiles=c1ccc2cc3c4ccccc4c4ccccc4c3cc2c1 category_label="label 1"
sample_smiles=NC(N)=Nc1nc(CSCCC(N)=NS(N)(=O)=O)cs1 category_label="label 0"
sample_smiles=CC1(C)S[C@@H]2[C@H](NC(=O)[C@H](N)c3ccc(O)cc3)C(=O)N2[C@H]1C(=O)O category_label="label 0"

###

# protocol-summary: TOX21_p53_BLA_p3_viability: Viability Assessment in the Tox21 HCT-116 p53 Agonism Beta-lactamase Assay, Phase 3 (AID 2283593);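 further: cells exposed to compound for 16 h before reading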
Records with an inconclusive call do not appear. Active and inactive are the calls of the source. Rule for the calls: active = hit-call score of the fitted dose curve at least 0.9, where 1 is the maximum; inconclusive = response in the unintended direction; inactive = score below 0.9.
measured-quantity: AC50

compound=Cc1c(C(=O)NN2CCCCC2)nn(-c2ccc(Cl)cc2Cl)c1-c1ccc(Cl)cc1 measured_quantity=AC50 test_result="23 µM (active)"
compound=CCOC(=O)c1ccc(NC(=O)CN2CCCCC2)cc1 measured_quantity=AC50 test_result=inactive
compound=COC(=O)CCCCCCCC(=O)OC measured_quantity=AC50 test_result=inactive
compound=CCCCc1oc2ccc(NS(C)(=O)=O)cc2c1C(=O)c1ccc(OCCCN(CCCC)CCCC)cc1 measured_quantity=AC50 test_result="34.6 µM (active)"
compound=CC[C@H](C)C(=O)O[C@H]1CCC=C2C=C[C@H](C)[C@H](CC[C@@H]3C[C@@H](O)CC(=O)O3)[C@H]21 measured_quantity=AC50 test_result=inactive
compound=CCCCCCCCCCCCCCC(=O)O measured_quantity=AC50 test_result=inactive
compound="CC(C)[N+](C)(C)CC(O)COc1cccc2ccccc12 (stereo unspecified)" measured_quantity=AC50 test_result=inactive
compound=c1ccc2sc(SSc3nc4ccccc4s3)nc2c1 measured_quantity=AC50 test_result=inactive
compound=C=Cc1ccccc1 measured_quantity=AC50 test_result=inactive
compound="CCN(CC)CCOc1ccc(C(O)(Cc2ccc(Cl)cc2)c2ccc(C)cc2)cc1 (stereo unspecified)" measured_quantity=AC50 test_result="23 µM (active)"
compound="CCOC(=O)C1=C(C)NC(C)=C(C(=O)OC)C1c1cccc([N+](=O)[O-])c1 (stereo unspecified)" measured_quantity=AC50 test_result=inactive

###

# protocol-summary: ATG_NFI_CIS: Attagene CIS-FACTORIAL HepG2 Assay for human Nuclear Factor I (NFI) (AID 2282989)
# condition-details: HepG2 cis-regulatory reporter, NFI response element transcription; actives raise or lower the signal
Activity calls are given as the source filed them. The calls were made as follows: active = hit-call score of the fitted dose curve at least 0.9, where 1 is the maximum; inactive = score below 0.9.
Labels: active, inactive

compound=F[B-](F)(F)F category_label=inactive
compound=COCCCN category_label=inactive
compound=Cc1cc(-n2nc3ccc(Cl)cc3n2)c(O)c(C(C)(C)C)c1 category_label=inactive
compound="C=CC(C)(CCC=C(C)C)OC(=O)c1ccccc1 (centres undefined)" category_label=inactive
compound="CCC(C)NC(N)=O (centres undefined)" category_label=inactive
compound=CC/C=C\CCCCCO category_label=inactive
compound=CC(C)(C)NC(=O)[C@@H]1CN(Cc2cccnc2)CCN1C[C@@H](O)C[C@@H](Cc1ccccc1)C(=O)N[C@H]1c2ccccc2C[C@H]1O category_label=inactive
compound=CCO[Si](OCC)(OCC)c1ccccc1 category_label=inactive
compound=O=C(Oc1ccccc1)c1ccccc1 category_label=inactive
compound=Brc1ccc(Oc2ccc(Br)cc2)cc1 category_label=inactive
compound=c1ccc2c(c1)Oc1ccccc1S2 category_label=active
compound=CC/C=C/CCO category_label=inactive
compound=Clc1ccccn1 category_label=inactive
compound=CCOC(=O)c1ccccc1 category_label=inactive
compound=C[Si](C)(C)O[Si](C)(C)O[Si](C)(C)C category_label=inactive
compound="CC[N+](CC)(CC(=O)Nc1c(C)cccc1C)Cc1ccccc1 (tested in a mixture with another compound)" category_label=inactive
compound="CC1=C(CC(=O)O)c2cc(F)ccc2/C1=C\\c1ccc(S(C)=O)cc1 (centres undefined)" category_label=inactive
compound=CC(C)(Oc1ccc(Cl)cc1)C(=O)O category_label=inactive
compound=CCC(C)=NO category_label=inactive
compound=COC(=O)c1ccccc1 category_label=inactive
compound=O=C(c1ccccc1)c1ccccc1O category_label=active
compound=[O-][n+]1ccc(Cl)cc1 category_label=inactive
compound=CC(C)CC(=O)O category_label=inactive
compound=CC1(C)S[C@@H]2[C@H](NC(=O)[C@H](N)c3ccccc3)C(=O)N2[C@H]1C(=O)O category_label=inactive
compound=Cc1ccccc1S(=O)(=O)O category_label=inactive
compound=O=C(OCc1ccccc1)c1ccccc1 category_label=inactive
compound=CC(C)CC(=O)CC(C)C category_label=inactive
compound=Oc1ccc(Cl)cc1C1CCCC1 category_label=active
compound=CCCC(=O)OC/C=C(\C)CCC=C(C)C category_label=inactive
compound="O=C(C1CCCCC1)N1CC(=O)N2CCc3ccccc3C2C1 (centres undefined)" category_label=inactive
compound=C[C@H]1C[C@H]2[C@@H]3CCC4=CC(=O)C=C[C@]4(C)[C@@]3(F)[C@@H](O)C[C@]2(C)[C@@]1(O)C(=O)CO category_label=inactive
compound="CCCCCC1CCCC(=O)O1 (centres undefined)" category_label=inactive
compound=Nc1nnc(-c2ccc([N+](=O)[O-])o2)o1 category_label=inactive
compound=NC(N)=Nc1nc(CSCCC(N)=NS(N)(=O)=O)cs1 category_label=inactive
compound=CC/C=C\CCO category_label=inactive
compound=NCc1ccccc1 category_label=inactive
compound="CCCCCCC1CCCC(=O)O1 (centres undefined)" category_label=inactive
compound="c1cc(N(CC2CO2)CC2CO2)ccc1Cc1ccc(N(CC2CO2)CC2CO2)cc1 (centres undefined)" category_label=active
compound=CO[Si](CCCNCCN)(OC)OC category_label=inactive
compound="CCCCCCCCCCC1CO1 (centres undefined)" category_label=inactive
compound=OCCc1ccccn1 category_label=inactive
compound=C=CN1CCCCCC1=O category_label=inactive
compound=CCO[Si](CCCN)(OCC)OCC category_label=inactive
compound=CNC(=C[N+](=O)[O-])NCCSCc1csc(CN(C)C)n1 category_label=inactive

Reference source: PubChem BioAssay (EPA / NIEHS)
